Reported values of IC50 for individual entries
targetDesc: human A2B receptor (Homo sapiens, UniProt P29275)
Construct: expressed in transfected cells; host or cells: HEK293
Sequence (P29275 whole entry): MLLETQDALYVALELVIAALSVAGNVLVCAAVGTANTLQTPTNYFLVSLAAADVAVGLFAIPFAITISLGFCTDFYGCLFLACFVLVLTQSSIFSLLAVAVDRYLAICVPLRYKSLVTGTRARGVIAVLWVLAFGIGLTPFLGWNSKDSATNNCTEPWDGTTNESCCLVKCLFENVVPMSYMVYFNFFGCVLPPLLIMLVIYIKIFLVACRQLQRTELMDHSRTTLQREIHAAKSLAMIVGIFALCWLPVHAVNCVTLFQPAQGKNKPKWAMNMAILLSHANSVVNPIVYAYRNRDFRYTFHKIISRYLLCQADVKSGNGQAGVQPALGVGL
protocolText: Functional A2B receptor activity, recombinant HEK293 cells, cAMP (HTRF), agonist NECA
Assay type: cell-based
testConditions: read-out: Functional A2B receptor activity, HEK293, cAMP, IC50

Solved entries (count: 2):
>>> experimentalresult("COc1ncc(C2=CCOCC2)c2sc(NC(=O)c3cnc4ccccn34)nc12 [Compound 135]")
"< 10 nM"
>>> experimentalresult("COc1ncc(-c2ccc(=O)[nH]c2)c2sc(NC(=O)N3CCC4(CCOCC4)C3)nc12 [Compound 78]")
"< 1000 nM"

Noted IC50 for COc1ncc(-c2ccccc2)c2sc(NC(=O)c3cn[nH]c3)nc12 [Compound 117] , tested on human A2B receptor (Homo sapiens, UniProt P29275): < 10 nM

For COc1nc(F)c(C2CCOCC2)c2sc(NC(=O)c3cnn(C)c3)nc12 [Compound 23] on human A2B receptor (Homo sapiens, UniProt P29275), measured IC50 was < 10 nM

Kindly note: human A2B receptor (Homo sapiens, UniProt P29275), [2H]C([2H])([2H])Oc1ncc(C2=CCOCC2)c2sc(NC(=O)N3CC[C@]4(CCCOC4)C3)nc12 [Compound 173] , IC50 value reported: < 10 nM

Item: COc1ncc(C2=CCOCC2)c2sc(NC(=O)N3CC[C@@]4(CCCOC4)C3)nc12 [Compound 25] | System: human A2B receptor (Homo sapiens, UniProt P29275) | IC50: < 10 nM

human A2B receptor (Homo sapiens, UniProt P29275) assay, compound COc1ncc(-c2ccc(F)c(O)c2)c2sc(NC(=O)N3CCC4(CCOCC4)C3)nc12 [Compound 149] , recorded IC50 = < 10 nM

Simply: COc1ncc(C2=CCOCC2)c2sc(NC(=O)N3CCC(N4C(=O)C=CC4=O)CC3)nc12 [Compound 88] , human A2B receptor (Homo sapiens, UniProt P29275), IC50 = < 100 nM

Summary: COc1cnc(N2CCOCC2)c2sc(NC(=O)N3CCOCC3)nc12 [drawing 193, reference compound] , human A2B receptor (Homo sapiens, UniProt P29275), IC50 = < 1000 nM
